test: physchem; details: 25 °C, water, thermodynamic from solid
ENDPOINT_NAME: solubility at 30 min

COMPOUND	solubility at 30 min
CC(C)C[C@@H](N)C(=O)N[C@@H]1C(=O)NC(CC(N)=O)C(=O)NC2C(=O)NC3C(=O)N[C@H](C(=O)NC(C(=O)O)c4cc(O)cc(O)c4-c4cc3ccc4O)[C@H](O)c3ccc(c(Cl)c3)Oc3cc2cc(c3OC2OC(CO)C(O)C(O)C2OC2CC(C)(NCC(OCc3ccccc3)C(=O)O)C(O)C(C)O2)Oc2ccc(cc2Cl)C1O (some centres unmarked) [Compound V51]	20 mg/mL

Query block: Report solubility at 30 min for CN[C@H](CC(C)C)C(=O)NC1C(=O)N[C@@H](CC(N)=O)C(=O)N[C@H]2C(=O)NC3C(=O)N[C@H](C(=O)N[C@@H](C(=O)O)c4cc(O)cc(O)c4-c4cc3ccc4O)[C@H](OC3CC(C)(N)C(O)C(C)O3)c3ccc(c(Cl)c3)Oc3cc2cc(c3OC2OC(CO)C(O)C(O)C2OC2CC(C)(NCC(OCc3cccc(-c4ccc(Cl)cc4)c3)C(=O)O)C(O)C(C)O2)Oc2ccc(cc2Cl)[C@H]1O (some centres unmarked) [Compound V65] please.
Result block: 5 to 20 mg/mL

----------
Below, each entry is listed alongside its reported solubility at 30 min.
assay: physchem; settings: 25 °C, water, thermodynamic from solid

In the examples that follow, each entry is paired with its recorded solubility at 30 min.
COMPOUND	ENDPOINT_NAME	ENDPOINT_RESULT
CCCCCCOC(CNC1(C)CC(OC2C(Oc3c4cc5cc3Oc3ccc(cc3Cl)[C@@H](O)[C@@H]3NC(=O)C(NC(=O)[C@@H]5NC(=O)[C@H](CC(N)=O)NC(=O)C(NC(=O)[C@@H](CC(C)C)NC)[C@H](O)c5ccc(c(Cl)c5)O4)c4ccc(O)c(c4)-c4c(O)cc(O)cc4[C@H](C(=O)O)NC3=O)OC(CO)C(O)C2O)OC(C)C1O)C(=O)O (stereo partly drawn)	solubility at 30 min	50 to 60 mg/mL
CN[C@H](CC(C)C)C(=O)NC1C(=O)N[C@@H](CC(N)=O)C(=O)N[C@H]2C(=O)NC3C(=O)N[C@H](C(=O)N[C@@H](C(=O)O)c4cc(O)cc(O)c4-c4cc3ccc4O)[C@H](OC3CC(C)(N)C(O)C(C)O3)c3ccc(c(Cl)c3)Oc3cc2cc(c3OC2OC(CO)C(O)C(O)C2OC2CC(C)(NCC(OCc3ccccc3)C(=O)O)C(O)C(C)O2)Oc2ccc(cc2Cl)[C@H]1O (stereo partly drawn)	solubility at 30 min	20 mg/mL

Then there is this compound:
Query block: Look at this compound and give its reported solubility at 30 min. CC(C)C[C@@H](N)C(=O)N[C@@H]1C(=O)NC(CC(N)=O)C(=O)NC2C(=O)NC3C(=O)N[C@H](C(=O)NC(C(=O)O)c4cc(O)cc(O)c4-c4cc3ccc4O)[C@H](OC3CC(C)(N)C(O)C(C)O3)c3ccc(c(Cl)c3)Oc3cc2cc(c3OC2OC(CO)C(O)C(O)C2OC2CC(C)(NCC(OCc3ccc(-c4ccc(Cl)cc4)cc3)C(=O)O)C(O)C(C)O2)Oc2ccc(cc2Cl)C1O (stereo partly drawn)
Result block: 5 to 20 mg/mL

----------
Catalogue of solubility at 30 min values
test: physchem; details: 25 °C, water, thermodynamic from solid

The cases that follow already have their solubility at 30 min on record.
COMPOUND	solubility at 30 min
CN[C@H](CC(C)C)C(=O)N[C@@H]1C(=O)NC(CC(N)=O)C(=O)NC2C(=O)NC3C(=O)N[C@H](C(=O)NC(C(=O)O)c4cc(O)cc(O)c4-c4cc3ccc4O)[C@H](O)c3ccc(c(Cl)c3)Oc3cc2cc(c3OC2OC(CO)C(O)C(O)C2OC2CC(C)(NCC(OCc3ccc(Cl)cc3)C(=O)OC)C(O)C(C)O2)Oc2ccc(cc2Cl)C1O (stereo partly drawn) [Compound V20]	< 5000 µg/mL
COC(=O)C(CNC1(C)CC(OC2C(Oc3c4cc5cc3Oc3ccc(cc3Cl)[C@@H](O)[C@@H]3NC(=O)C(NC(=O)[C@@H]5NC(=O)[C@H](CC(N)=O)NC(=O)C(NC(=O)[C@H](N)CC(C)C)[C@H](O)c5ccc(c(Cl)c5)O4)c4ccc(O)c(c4)-c4c(O)cc(O)cc4[C@H](C(=O)O)NC3=O)OC(CO)C(O)C2O)OC(C)C1O)OCc1ccc(-c2ccc(Cl)cc2)cc1 (stereo partly drawn) [Compound V55]	3000 µg/mL

Now let's try a different one.
Query block: For the compound shown here, CN[C@H](CC(C)C)C(=O)NC1C(=O)N[C@@H](CC(N)=O)C(=O)N[C@H]2C(=O)NC3C(=O)N[C@H](C(=O)N[C@@H](C(=O)O)c4cc(O)cc(O)c4-c4cc3ccc4O)[C@H](O)c3ccc(c(Cl)c3)Oc3cc2cc(c3OC2OC(CO)C(O)C(O)C2OC2CC(C)(NCC(OCc3ccccc3)C(=O)OC)C(O)C(C)O2)Oc2ccc(cc2Cl)[C@H]1O (stereo partly drawn) [Compound V9] , give the reported solubility at 30 min.
Result block: < 100 µg/mL

----------
assay: physchem; details: 25 °C, water, thermodynamic from solid
ENDPOINT_NAME: solubility at 30 min

Query block: Sample CN[C@H](CC(C)C)C(=O)N[C@@H]1C(=O)NC(CC(N)=O)C(=O)NC2C(=O)NC3C(=O)N[C@H](C(=O)NC(C(=O)O)c4cc(O)cc(O)c4-c4cc3ccc4O)[C@H](OC3CC(C)(N)C(O)C(C)O3)c3ccc(c(Cl)c3)Oc3cc2cc(c3OC2OC(CO)C(O)C(O)C2OC2CC(C)(NCC(OCc3ccc(-c4ccc(Cl)cc4)cc3)C(=O)O)C(O)C(C)O2)Oc2ccc(cc2Cl)C1O (stereo partly shown) — what was its solubility at 30 min?
Result block: 5 to 20 mg/mL

----------
test: physchem; conditions: 25 °C, water, thermodynamic from solid
ENDPOINT_NAME: solubility at 30 min

COMPOUND	solubility at 30 min
CCCCOC(CNC1(C)CC(OC2C(Oc3c4cc5cc3Oc3ccc(cc3Cl)[C@@H](O)[C@@H]3NC(=O)C(NC(=O)C5NC(=O)C(CC(N)=O)NC(=O)[C@@H](NC(=O)[C@H](N)CC(C)C)C(O)c5ccc(c(Cl)c5)O4)c4ccc(O)c(c4)-c4c(O)cc(O)cc4C(C(=O)O)NC3=O)OC(CO)C(O)C2O)OC(C)C1O)C(=O)O (stereo partly shown)	50000 to 60000 µg/mL
CCCOC(CNC1(C)CC(OC2C(Oc3c4cc5cc3Oc3ccc(cc3Cl)[C@@H](O)[C@@H]3NC(=O)C(NC(=O)[C@@H]5NC(=O)[C@H](CC(N)=O)NC(=O)C(NC(=O)[C@@H](CC(C)C)NC)[C@H](O)c5ccc(c(Cl)c5)O4)c4ccc(O)c(c4)-c4c(O)cc(O)cc4[C@H](C(=O)O)NC3=O)OC(CO)C(O)C2O)OC(C)C1O)C(=O)O (stereo partly shown)	4000 µg/mL
CCCCCCOC(CNC1(C)CC(OC2C(Oc3c4cc5cc3Oc3ccc(cc3Cl)[C@@H](O)[C@@H]3NC(=O)C(NC(=O)[C@@H]5NC(=O)[C@H](CC(N)=O)NC(=O)C(NC(=O)[C@H](N)CC(C)C)[C@H](O)c5ccc(c(Cl)c5)O4)c4ccc(O)c(c4)-c4c(O)cc(O)cc4[C@H](C(=O)O)NC3=O)OC(CO)C(O)C2O)OC(C)C1O)C(=O)O (stereo partly shown)	> 20000 µg/mL
CN[C@H](CC(C)C)C(=O)NC1C(=O)N[C@@H](CC(N)=O)C(=O)N[C@H]2C(=O)NC3C(=O)N[C@H](C(=O)N[C@@H](C(=O)O)c4cc(O)cc(O)c4-c4cc3ccc4O)[C@H](O)c3ccc(c(Cl)c3)Oc3cc2cc(c3OC2OC(CO)C(O)C(O)C2OC2CC(C)(NCC(OCc3ccccc3)C(=O)O)C(O)C(C)O2)Oc2ccc(cc2Cl)[C@H]1O (stereo partly shown)	50000 to 60000 µg/mL

Query block: Given the compound CN[C@H](CC(C)C)C(=O)N[C@@H]1C(=O)NC(CC(N)=O)C(=O)NC2C(=O)NC3C(=O)N[C@H](C(=O)NC(C(=O)O)c4cc(O)cc(O)c4-c4cc3ccc4O)[C@H](O)c3ccc(c(Cl)c3)Oc3cc2cc(c3OC2OC(CO)C(O)C(O)C2OC2CC(C)(NCC(OCc3ccc(C)cc3)C(=O)OC)C(O)C(C)O2)Oc2ccc(cc2Cl)C1O (stereo partly shown) , what is its reported solubility at 30 min?
Result block: < 5000 µg/mL

Query block: Look at this compound and give its reported solubility at 30 min. CCCCCCOC(CNC1(C)CC(OC2C(Oc3c4cc5cc3Oc3ccc(cc3Cl)[C@@H](O)[C@@H]3NC(=O)C(NC(=O)C5NC(=O)C(CC(N)=O)NC(=O)[C@@H](NC(=O)[C@H](N)CC(C)C)C(O)c5ccc(c(Cl)c5)O4)c4ccc(O)c(c4)-c4c(O)cc(O)cc4C(C(=O)O)NC3=O)OC(CO)C(O)C2O)OC(C)C1O)C(=O)OC (stereo partly shown)
Result block: < 10000 µg/mL

Query block: So what's the measured solubility at 30 min for this one? CN[C@H](CC(C)C)C(=O)NC1C(=O)N[C@@H](CC(N)=O)C(=O)N[C@H]2C(=O)NC3C(=O)N[C@H](C(=O)N[C@@H](C(=O)O)c4cc(O)cc(O)c4-c4cc3ccc4O)[C@H](O)c3ccc(c(Cl)c3)Oc3cc2cc(c3OC2OC(CO)C(O)C(O)C2OC2CC(C)(NCC(OCc3ccc(-c4ccc(Cl)cc4)cc3)C(=O)O)C(O)C(C)O2)Oc2ccc(cc2Cl)[C@H]1O (stereo partly shown)
Result block: ≥ 60000 µg/mL

Query block: For the compound CC(C)C[C@@H](N)C(=O)NC1C(=O)N[C@@H](CC(N)=O)C(=O)N[C@H]2C(=O)NC3C(=O)N[C@H](C(=O)N[C@@H](C(=O)O)c4cc(O)cc(O)c4-c4cc3ccc4O)[C@H](O)c3ccc(c(Cl)c3)Oc3cc2cc(c3OC2OC(CO)C(O)C(O)C2OC2CC(C)(NCC(OCc3ccc(-c4ccccc4)cc3)C(=O)O)C(O)C(C)O2)Oc2ccc(cc2Cl)[C@H]1O (stereo partly shown) , what solubility at 30 min is on record?
Result block: 20000 µg/mL
